Test system: CYP3A
Experiment: Cytochrome P450 inhibition CYP3A
Assay type: in vitro ADME
Settings: human, probe testoterone; single point at 10 μM; substrate testoterone; read-out: CYP3A testoterone % inhibition
readout: inhibition at 10 µM
Reply with the number and its unit after it.

Q) Tell me inhibition at 10 µM of CSc1ccccc1[C@H]1CCCN1C(=O)CNC(=O)N(Cc1ccc(N)c(Cl)c1)Cc1nnn(C)n1 when tested on CYP3A.
A) 59%

###

This section lists log10(Kd) readings for Cyp A (Homo sapiens, UniProt P62937).
The base-10 logarithm of Kd, taken with Kd in µM, is what appears here.

Sample answers from the record:
INSERT INTO measurements (molecule, readout, recorded_value) VALUES
  ('Cn1nnc(CN(Cc2ccc(N)c(Cl)c2)C(=O)NCC(=O)N2CCC[C@@H]2c2ccccc2Br)n1 [Compound 10]', 'log10(Kd)', -0.70),
  ('CSc1ccccc1[C@H]1CCCN1C(=O)CNC(=O)N(Cc1cc(F)c(N)c(F)c1)Cc1nnn(C)n1 [Compound 5]', 'log10(Kd)', 0.06),
  ('CSc1ccccc1[C@@H]1CCCN1C(=O)CNC(=O)N(Cc1ccc2c(c1)[C@@H]1C[C@@H](N2)[C@H](O)CO1)Cc1nnn(C)n1 [Compound 4]', 'log10(Kd)', -0.51),
  ('CSc1ccccc1[C@H]1CCCN1C(=O)CN1C(=O)N(Cc2ccc(N)c(Cl)c2)CC1=NNC(C)=O [Compound 16]', 'log10(Kd)', 0.85),
  ('CSc1ccccc1[C@H]1CCCN1C(=O)CNC(=O)N(Cc1cnc(N)c(Cl)c1)Cc1nnc(C)s1 [Compound 14]', 'log10(Kd)', -0.02),
  ('CSc1ccccc1[C@H]1CCCN1C(=O)CNC(=O)N(Cc1cc(F)c(N)c(F)c1)Cc1cn(C)nn1 [Compound 6]', 'log10(Kd)', 0.66),
  ('CSc1ccccc1[C@H]1CCCN1C(=O)CNC(=O)N(Cc1ccc(N)cc1)Cc1nnn(C)n1 [Compound 2]', 'log10(Kd)', -1.05),
  ('CSc1ccccc1[C@H]1CCCN1C(=O)CNC(=O)N(Cc1cnc(N)nc1)Cc1nnc(C)s1 [Compound 13]', 'log10(Kd)', -0.17);

Go through the list and state log10(Kd) for each entry.
1. C#CCN(Cc1cc(F)c(N)c(F)c1)C(=O)NCC(=O)N1CCC[C@@H]1c1ccccc1SC [Compound 7]
2. CSc1ccccc1[C@H]1CCCN1C(=O)CNC(=O)N(Cc1ccc(N)c(Cl)c1)Cc1nnn(C)n1 [Compound 11]
3. CSc1ccccc1[C@H]1CCCN1C(=O)CNC(=O)N(Cc1cnc(N)nc1)Cc1ncc(C)s1 [Compound 12]

A)
1. 0.94
2. -0.96
3. 0.86

Reference source for all entries: paper PMC11956012
